Target: Full length human recombinant PIKFYVE (Homo sapiens (Human), UniProt Q9Y2I7)
Sequence (Q9Y2I7 whole entry): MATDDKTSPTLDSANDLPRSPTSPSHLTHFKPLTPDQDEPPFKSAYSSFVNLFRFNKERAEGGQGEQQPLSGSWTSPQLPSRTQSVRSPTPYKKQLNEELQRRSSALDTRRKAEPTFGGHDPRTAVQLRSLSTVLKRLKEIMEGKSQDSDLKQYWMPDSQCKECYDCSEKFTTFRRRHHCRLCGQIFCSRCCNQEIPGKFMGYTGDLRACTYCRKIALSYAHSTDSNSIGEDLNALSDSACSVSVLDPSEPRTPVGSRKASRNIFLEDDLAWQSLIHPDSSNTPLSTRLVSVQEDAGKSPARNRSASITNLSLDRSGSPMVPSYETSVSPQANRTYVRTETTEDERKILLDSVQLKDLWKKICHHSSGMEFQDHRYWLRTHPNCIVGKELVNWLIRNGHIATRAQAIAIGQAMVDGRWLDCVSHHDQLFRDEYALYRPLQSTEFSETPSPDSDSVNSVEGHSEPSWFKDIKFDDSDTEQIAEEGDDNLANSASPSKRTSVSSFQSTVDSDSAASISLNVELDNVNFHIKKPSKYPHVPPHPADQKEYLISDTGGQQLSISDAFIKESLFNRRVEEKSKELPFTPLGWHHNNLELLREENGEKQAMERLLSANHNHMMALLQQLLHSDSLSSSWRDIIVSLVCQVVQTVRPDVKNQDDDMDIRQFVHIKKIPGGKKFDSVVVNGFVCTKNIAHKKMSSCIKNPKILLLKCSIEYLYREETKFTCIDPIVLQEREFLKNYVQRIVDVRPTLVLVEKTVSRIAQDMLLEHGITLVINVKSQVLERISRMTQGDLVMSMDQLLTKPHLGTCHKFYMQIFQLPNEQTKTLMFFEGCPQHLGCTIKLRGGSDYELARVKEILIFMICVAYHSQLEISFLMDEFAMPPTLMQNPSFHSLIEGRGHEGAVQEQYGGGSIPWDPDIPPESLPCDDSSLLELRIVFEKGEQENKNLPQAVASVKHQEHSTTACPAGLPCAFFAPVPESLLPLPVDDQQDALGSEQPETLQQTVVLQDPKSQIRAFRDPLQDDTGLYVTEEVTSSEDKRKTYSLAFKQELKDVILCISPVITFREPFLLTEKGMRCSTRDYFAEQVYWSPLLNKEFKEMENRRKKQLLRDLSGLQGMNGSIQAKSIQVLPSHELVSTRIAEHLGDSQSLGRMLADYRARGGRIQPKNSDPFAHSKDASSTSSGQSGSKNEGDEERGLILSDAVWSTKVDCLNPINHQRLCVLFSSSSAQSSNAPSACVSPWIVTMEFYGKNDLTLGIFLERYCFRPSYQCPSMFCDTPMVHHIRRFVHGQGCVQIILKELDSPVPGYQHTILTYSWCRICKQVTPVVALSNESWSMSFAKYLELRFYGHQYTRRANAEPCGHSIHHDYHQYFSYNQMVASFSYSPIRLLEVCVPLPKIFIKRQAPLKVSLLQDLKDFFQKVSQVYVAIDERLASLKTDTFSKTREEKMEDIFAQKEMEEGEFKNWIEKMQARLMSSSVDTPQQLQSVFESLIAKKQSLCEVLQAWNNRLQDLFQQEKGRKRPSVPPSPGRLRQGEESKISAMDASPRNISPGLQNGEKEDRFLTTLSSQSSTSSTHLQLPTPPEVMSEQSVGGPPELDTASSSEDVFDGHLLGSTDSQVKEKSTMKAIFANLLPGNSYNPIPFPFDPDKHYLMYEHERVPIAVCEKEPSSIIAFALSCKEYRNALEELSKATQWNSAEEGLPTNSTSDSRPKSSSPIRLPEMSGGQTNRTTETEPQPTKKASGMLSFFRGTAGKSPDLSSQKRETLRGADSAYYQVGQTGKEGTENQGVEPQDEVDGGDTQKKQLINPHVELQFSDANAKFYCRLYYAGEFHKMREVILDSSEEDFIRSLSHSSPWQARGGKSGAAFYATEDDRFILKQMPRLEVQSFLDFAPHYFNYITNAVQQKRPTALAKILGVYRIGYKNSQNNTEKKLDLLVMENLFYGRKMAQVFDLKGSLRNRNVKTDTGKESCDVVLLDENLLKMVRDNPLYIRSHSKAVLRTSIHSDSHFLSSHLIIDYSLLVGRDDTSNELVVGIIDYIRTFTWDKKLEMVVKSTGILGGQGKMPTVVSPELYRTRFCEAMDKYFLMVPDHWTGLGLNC
Experiment: Inhibition of PIKfyve (microfluidic electrophoresis kinase assay)
Conditions: 2 nM enzyme, PI3P/PS substrate, 3 h at room temperature, 12 concentrations
Description: Full length human recombinant PIKFYVE expressed in baculovirus expression system as N-terminal GST-fusion protein (265 kDa) was obtained from Carna Biosciences (Kobe, Japan). […] The kinase reactions were assembled in 384-well plates (Greiner) in a total volume of 20 mL as follows. […] Terminated plates were analyzed on a microfluidic electrophoresis instrument (Caliper LabChip® 3000, Caliper Life Sciences/Perkin Elmer). […]
attribute measured: IC50 (nM)

Solved cases below.
smiles entry	IC50, nM
Cc1cccc(-c2ccn(-c3cc(N4CCOCC4)n4nc(-c5cc(C)n(CCN(C)C)n5)cc4n3)n2)c1	9.4
c1ccc(-c2cc(Nc3cc(N4CCOCC4)n4nc(-c5ccncc5)cc4n3)n[nH]2)cc1	967
COc1cccc(-c2ccn(-c3cc(N4CCOCC4)n4nc(-c5cccnc5)cc4n3)n2)c1	7.1

[I] c1ccc(-c2ccn(-c3cc(N4CCOCC4)n4nc(-c5ccccn5)cc4n3)n2)cc1
[II] Cc1cccc(-c2ccn(-c3cc(N4CCOCC4)n4nc(-c5ccncc5)cc4n3)n2)c1
Could you point out whether the larger IC50 belongs to I or to II ? Identify your pick by its label.
I
